Protocol Summary: Thermal denaturation followed by CD spectroscopy
Type: physicochemical
Measurement Setup: apoprotein 0.2 mg/mL, 10 mM potassium phosphate pH 7.8, 50 mM (NH4)2SO4
Assay Metric: Tm (°C)
Numbers only, in °C.

Report Tm for H191A ALKBH3: ALKBH3 mutant, His191 replaced with Ala (protein, UniProt Q96Q83 1-286, looked up, variant H191A) Alpha-ketoglutarate-dependent …: MEEKRRRARVQGAWAAPVKSQAIAQPATTAKSHLHQKPGQTWKNKEHHLSDREFVFKEPQQVVRRAPEPRVIDREGVYEISLSPTGVSRVCLYPGFVDVKEADWILEQLCQDVPWKQRTGIREDITYQQPRLTAWYGELPYTYSRITMEPNPHWHPVLRTLKNRIEENTGHTFNSLLCNLYRNEKDSVDWASDDEPSLGRCPIIASLSFGATRTFEMRKKPPPEENGDYTYVERVKIPLDHGTLLIMEGATQADWQHRVPKEYHSREPRVNLTFRTVYPDPRGAPW 42.7

// data source = paper PMC10816986
